# assayed_target: Epidermal growth factor receptor (Homo sapiens, UniProt P00533)
# Sequence (P00533 whole entry): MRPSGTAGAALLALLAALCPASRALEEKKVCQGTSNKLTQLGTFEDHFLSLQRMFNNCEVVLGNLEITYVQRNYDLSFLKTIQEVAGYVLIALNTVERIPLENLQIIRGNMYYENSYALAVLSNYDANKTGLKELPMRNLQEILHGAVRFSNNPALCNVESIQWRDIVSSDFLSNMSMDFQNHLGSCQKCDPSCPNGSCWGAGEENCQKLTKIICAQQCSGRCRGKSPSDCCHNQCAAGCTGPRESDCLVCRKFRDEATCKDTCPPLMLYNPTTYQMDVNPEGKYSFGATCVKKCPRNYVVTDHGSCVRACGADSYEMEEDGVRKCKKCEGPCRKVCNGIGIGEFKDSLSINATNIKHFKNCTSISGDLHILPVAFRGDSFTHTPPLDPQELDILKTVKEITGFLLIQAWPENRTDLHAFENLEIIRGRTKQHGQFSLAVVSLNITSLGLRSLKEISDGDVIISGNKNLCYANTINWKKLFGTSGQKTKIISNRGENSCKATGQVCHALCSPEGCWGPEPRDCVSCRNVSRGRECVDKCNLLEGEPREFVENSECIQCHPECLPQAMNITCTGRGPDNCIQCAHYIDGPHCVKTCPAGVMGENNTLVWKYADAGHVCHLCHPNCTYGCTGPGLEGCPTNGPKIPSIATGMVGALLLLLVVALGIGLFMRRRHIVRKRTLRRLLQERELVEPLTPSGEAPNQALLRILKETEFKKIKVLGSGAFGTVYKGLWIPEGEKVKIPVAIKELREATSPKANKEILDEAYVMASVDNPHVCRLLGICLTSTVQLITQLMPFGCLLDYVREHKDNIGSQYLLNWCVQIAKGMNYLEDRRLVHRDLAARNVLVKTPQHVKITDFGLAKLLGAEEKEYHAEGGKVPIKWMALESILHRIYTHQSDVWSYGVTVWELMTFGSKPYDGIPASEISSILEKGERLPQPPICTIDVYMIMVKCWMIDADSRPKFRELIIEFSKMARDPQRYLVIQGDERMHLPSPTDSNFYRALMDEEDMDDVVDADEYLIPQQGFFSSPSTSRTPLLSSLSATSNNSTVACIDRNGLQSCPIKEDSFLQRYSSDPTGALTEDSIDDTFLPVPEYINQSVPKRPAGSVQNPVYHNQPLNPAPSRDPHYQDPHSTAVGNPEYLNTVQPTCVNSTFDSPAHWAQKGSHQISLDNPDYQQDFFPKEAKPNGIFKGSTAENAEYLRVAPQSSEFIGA
# assay_explanation: Inhibition of recombinant human EGFR (696 to end residues) using poly(Glu, Tyr) 4:1 as substrate after 40 mins in presence of [gamma-33ATP] by radiometric scintillation counting analysis
experimental_readout: pIC50
Scale: negative log10 of molar concentration, which is what pIC50 denotes.

Find the recorded pIC50 belonging to CC(C)Oc1cc(F)ccc1Nc1ncnc2ccc(-c3ccc(C(=O)N4CCNCC4)cc3)nc12 and report it.
5.71

---

# assayed_target: MAP kinase-interacting serine/threonine-protein kinase 1 (Homo sapiens)
# Sequence (Q9BUB5 whole entry): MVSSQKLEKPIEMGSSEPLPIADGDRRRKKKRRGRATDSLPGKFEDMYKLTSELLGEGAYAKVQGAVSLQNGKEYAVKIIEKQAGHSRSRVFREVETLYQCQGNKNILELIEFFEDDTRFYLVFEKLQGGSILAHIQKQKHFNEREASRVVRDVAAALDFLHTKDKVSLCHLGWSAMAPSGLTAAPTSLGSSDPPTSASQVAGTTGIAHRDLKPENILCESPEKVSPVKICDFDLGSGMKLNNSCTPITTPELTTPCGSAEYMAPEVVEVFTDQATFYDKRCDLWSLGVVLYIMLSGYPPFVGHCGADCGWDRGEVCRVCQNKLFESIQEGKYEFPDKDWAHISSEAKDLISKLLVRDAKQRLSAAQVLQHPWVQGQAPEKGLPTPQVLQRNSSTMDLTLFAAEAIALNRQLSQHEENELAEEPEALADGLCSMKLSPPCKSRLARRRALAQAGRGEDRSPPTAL
# assay_explanation: Inhibition of wild type human full length MKN1 (M1 to L424) expressed in mammalian expression system by HTRF method
experimental_readout: pIC50
Scale: negative log10 of molar concentration, which is what pIC50 denotes.

Find the recorded pIC50 belonging to CC(C)Oc1cc(F)ccc1Nc1ncnc2ccc(-c3ccc(C(=O)N4CCNCC4)cc3)nc12 and report it.
9.00
